- study target: von Hippel-Lindau disease tumor suppressor/Vascular endothelial growth factor receptor 2 (Homo sapiens, UniProt P35968+P40337)
- assay comment: PROTAC activity at VHL/VEGFR2 in human HGC-27 cells assessed as reduction in VEGFR2 protein level incubated for 24 hrs by Western blot analysis
- Assay type: cell-based
- Sequence (P35968 whole entry): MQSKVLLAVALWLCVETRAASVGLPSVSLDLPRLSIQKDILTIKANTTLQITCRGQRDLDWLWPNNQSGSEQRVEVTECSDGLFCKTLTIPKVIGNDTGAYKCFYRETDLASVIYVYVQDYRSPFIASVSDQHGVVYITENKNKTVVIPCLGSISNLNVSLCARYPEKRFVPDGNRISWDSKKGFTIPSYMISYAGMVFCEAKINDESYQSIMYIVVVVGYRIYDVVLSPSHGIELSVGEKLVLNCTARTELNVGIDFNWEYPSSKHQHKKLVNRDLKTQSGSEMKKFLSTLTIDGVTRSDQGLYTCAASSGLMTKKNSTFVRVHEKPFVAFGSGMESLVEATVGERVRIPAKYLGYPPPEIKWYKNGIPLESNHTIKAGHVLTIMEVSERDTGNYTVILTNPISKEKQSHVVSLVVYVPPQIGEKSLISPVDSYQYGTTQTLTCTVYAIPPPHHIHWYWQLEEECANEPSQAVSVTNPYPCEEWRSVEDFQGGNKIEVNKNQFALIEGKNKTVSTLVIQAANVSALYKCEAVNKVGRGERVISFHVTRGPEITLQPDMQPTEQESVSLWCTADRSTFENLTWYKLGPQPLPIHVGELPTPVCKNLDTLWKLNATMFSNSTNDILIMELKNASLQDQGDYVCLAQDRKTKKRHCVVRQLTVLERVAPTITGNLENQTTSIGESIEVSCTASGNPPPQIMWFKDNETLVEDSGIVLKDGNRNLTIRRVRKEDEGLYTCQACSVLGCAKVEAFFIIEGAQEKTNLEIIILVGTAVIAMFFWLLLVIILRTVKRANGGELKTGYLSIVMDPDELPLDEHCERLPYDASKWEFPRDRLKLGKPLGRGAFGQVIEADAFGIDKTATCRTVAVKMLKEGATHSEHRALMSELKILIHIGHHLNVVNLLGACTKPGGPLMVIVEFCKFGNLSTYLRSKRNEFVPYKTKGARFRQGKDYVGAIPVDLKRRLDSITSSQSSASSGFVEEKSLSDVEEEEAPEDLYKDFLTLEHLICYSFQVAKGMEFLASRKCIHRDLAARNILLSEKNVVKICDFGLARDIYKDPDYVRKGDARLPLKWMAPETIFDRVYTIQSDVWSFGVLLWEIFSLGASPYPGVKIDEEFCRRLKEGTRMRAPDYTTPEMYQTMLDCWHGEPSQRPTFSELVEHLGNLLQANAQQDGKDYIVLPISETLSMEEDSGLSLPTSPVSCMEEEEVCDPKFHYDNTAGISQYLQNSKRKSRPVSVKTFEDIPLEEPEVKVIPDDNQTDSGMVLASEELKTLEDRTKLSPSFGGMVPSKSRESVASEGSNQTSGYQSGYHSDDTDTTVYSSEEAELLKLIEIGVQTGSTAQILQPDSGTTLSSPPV
- Sequence (P40337 whole entry): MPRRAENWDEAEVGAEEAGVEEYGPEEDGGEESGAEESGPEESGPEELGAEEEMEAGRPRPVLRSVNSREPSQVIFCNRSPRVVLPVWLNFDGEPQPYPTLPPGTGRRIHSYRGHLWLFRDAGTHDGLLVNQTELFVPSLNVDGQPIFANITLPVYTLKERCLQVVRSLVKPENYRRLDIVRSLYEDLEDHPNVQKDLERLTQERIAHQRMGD
pEC50: −log10 of the molar value.
quantity: pEC50

INSERT INTO results (compound_string, result) VALUES
  ('Cc1ccc(NC(=O)Cn2cc(-c3ccc4c(NC(=O)c5ccc(NC(=O)CCCCC(=O)N[C@H](C(=O)N6C[C@H](O)C[C@H]6C(=O)NCc6ccc(-c7scnc7C)cc6)C(C)(C)C)cc5)n[nH]c4c3)cn2)cc1C(F)(F)F', 6.48),
  ('Cc1ccc(NC(=O)Cn2cc(-c3ccc4c(NC(=O)c5ccc(NC(=O)CCCCC(=O)N6CCN(CCCCCCC(=O)N[C@H](C(=O)N7C[C@H](O)C[C@H]7C(=O)NCc7ccc(-c8scnc8C)cc7)C(C)(C)C)CC6)cc5)n[nH]c4c3)cn2)cc1C(F)(F)F', '< 5.48'),
  ('Cc1ccc(NC(=O)Cn2cc(-c3ccc4c(NC(=O)c5ccc(N6CCN(CCCCCCC(=O)N[C@H](C(=O)N7C[C@H](O)C[C@H]7C(=O)NCc7ccc(-c8scnc8C)cc7)C(C)(C)C)CC6)cc5)n[nH]c4c3)cn2)cc1C(F)(F)F', '< 5.48'),
  ('Cc1ccc(NC(=O)Cn2cc(-c3ccc4c(NC(=O)c5ccc(N6CCN(CCCCCCCC(=O)N[C@H](C(=O)N7C[C@H](O)C[C@H]7C(=O)NCc7ccc(-c8scnc8C)cc7)C(C)(C)C)CC6)cc5)n[nH]c4c3)cn2)cc1C(F)(F)F', '< 5.48'),
  ('Cc1ccc(NC(=O)Cn2cc(-c3ccc4c(NC(=O)c5ccc(NC(=O)CCCCCCCCC(=O)N[C@H](C(=O)N6C[C@@H](O)C[C@H]6C(=O)NCc6ccc(-c7scnc7C)cc6)C(C)(C)C)cc5)n[nH]c4c3)cn2)cc1C(F)(F)F', '< 5.48');

Request: Fill blank: measured pEC50 of the compound Cc1ccc(NC(=O)Cn2cc(-c3ccc4c(NC(=O)c5ccc(NC(=O)CCCCCC(=O)N[C@H](C(=O)N6C[C@H](O)C[C@H]6C(=O)NCc6ccc(-c7scnc7C)cc6)C(C)(C)C)cc5)n[nH]c4c3)cn2)cc1C(F)(F)F is ____.
Result: < 5.48

###

- assay comment: Cytotoxicity against HUVEC cells assessed as inhibition of cell growth incubated for 72 hrs by MTT assay
- Format: toxicity, cell-based
- protocol conditions: human
quantity: IC50 at 72 h (µM)
Just the number in µM, nothing appended.

INSERT INTO assay_data (compound_string, quantity, value_unit, result) VALUES
  ('Cc1ccc(NC(=O)Cn2cc(-c3ccc4c(NC(=O)c5ccc(NC(=O)CCCCC(=O)N[C@H](C(=O)N6C[C@H](O)C[C@H]6C(=O)NCc6ccc(-c7scnc7C)cc6)C(C)(C)C)cc5)n[nH]c4c3)cn2)cc1C(F)(F)F', 'IC50 at 72 h', 'µM', 13);

Request: Fill blank: measured IC50 at 72 h of the compound Cc1ccc(NC(=O)Cn2cc(-c3ccc4c(NC(=O)c5ccc(NC(=O)CCCCCCCCC(=O)N[C@H](C(=O)N6C[C@H](O)C[C@H]6C(=O)NCc6ccc(-c7scnc7C)cc6)C(C)(C)C)cc5)n[nH]c4c3)cn2)cc1C(F)(F)F is ____.
Result: 7.07

Request: Fill blank: measured IC50 at 72 h of the compound Cc1ccc(NC(=O)Cn2cc(-c3ccc4c(NC(=O)c5ccc(NC(=O)CCCCC(=O)N6CCN(CCCCCCC(=O)N[C@H](C(=O)N7C[C@H](O)C[C@H]7C(=O)NCc7ccc(-c8scnc8C)cc7)C(C)(C)C)CC6)cc5)n[nH]c4c3)cn2)cc1C(F)(F)F is ____.
Result: 29.6

###

- assay comment: Cytotoxicity against HUVEC cells assessed as inhibition of cell growth incubated for 72 hrs by MTT assay
- Assay type: toxicity, cell-based
- protocol conditions: human
Reported IC50 at 72 h values for the following molecules.
Just the number in µM, nothing appended.

Request: Fill blank: measured IC50 at 72 h of the molecule Cc1ccc(NC(=O)Cn2cc(-c3ccc4c(NC(=O)c5ccc(NC(=O)CCCCCCCCCCC(=O)N[C@H](C(=O)N6C[C@H](O)C[C@H]6C(=O)NCc6ccc(-c7scnc7C)cc6)C(C)(C)C)cc5)n[nH]c4c3)cn2)cc1C(F)(F)F is ____.
Result: 17.6

Request: Fill blank: measured IC50 at 72 h of the molecule Cc1ccc(NC(=O)Cn2cc(-c3ccc4c(NC(=O)c5ccc(NC(=O)CCCCC(=O)N6CCN(CCCCC(=O)N[C@H](C(=O)N7C[C@H](O)C[C@H]7C(=O)NCc7ccc(-c8scnc8C)cc7)C(C)(C)C)CC6)cc5)n[nH]c4c3)cn2)cc1C(F)(F)F is ____.
Result: 9.36

Request: Fill blank: measured IC50 at 72 h of the molecule Cc1ccc(NC(=O)Cn2cc(-c3ccc4c(NC(=O)c5ccc(NC(=O)CCCCC(=O)N6CCN(CCCC(=O)N[C@H](C(=O)N7C[C@H](O)C[C@H]7C(=O)NCc7ccc(-c8scnc8C)cc7)C(C)(C)C)CC6)cc5)n[nH]c4c3)cn2)cc1C(F)(F)F is ____.
Result: 10.9

Request: Fill blank: measured IC50 at 72 h of the molecule Cc1ccc(NC(=O)Cn2cc(-c3ccc4c(NC(=O)c5ccc(NC(=O)CCCCC(=O)N6CCN(CCCCCCCC(=O)N[C@H](C(=O)N7C[C@H](O)C[C@H]7C(=O)NCc7ccc(-c8scnc8C)cc7)C(C)(C)C)CC6)cc5)n[nH]c4c3)cn2)cc1C(F)(F)F is ____.
Result: 25

###

Reported Emax values for the following compounds.
- study target: von Hippel-Lindau disease tumor suppressor/Vascular endothelial growth factor receptor 2 (Homo sapiens, UniProt P35968+P40337)
- assay comment: PROTAC activity at VHL/VEGFR2 in human HGC-27 cells assessed as reduction in VEGFR2 protein level by measuring maximal efficacy incubated for 24 hrs by Western blot analysis relative to control
- Assay type: cell-based
- Sequence (P35968 20-1356 limits assumed): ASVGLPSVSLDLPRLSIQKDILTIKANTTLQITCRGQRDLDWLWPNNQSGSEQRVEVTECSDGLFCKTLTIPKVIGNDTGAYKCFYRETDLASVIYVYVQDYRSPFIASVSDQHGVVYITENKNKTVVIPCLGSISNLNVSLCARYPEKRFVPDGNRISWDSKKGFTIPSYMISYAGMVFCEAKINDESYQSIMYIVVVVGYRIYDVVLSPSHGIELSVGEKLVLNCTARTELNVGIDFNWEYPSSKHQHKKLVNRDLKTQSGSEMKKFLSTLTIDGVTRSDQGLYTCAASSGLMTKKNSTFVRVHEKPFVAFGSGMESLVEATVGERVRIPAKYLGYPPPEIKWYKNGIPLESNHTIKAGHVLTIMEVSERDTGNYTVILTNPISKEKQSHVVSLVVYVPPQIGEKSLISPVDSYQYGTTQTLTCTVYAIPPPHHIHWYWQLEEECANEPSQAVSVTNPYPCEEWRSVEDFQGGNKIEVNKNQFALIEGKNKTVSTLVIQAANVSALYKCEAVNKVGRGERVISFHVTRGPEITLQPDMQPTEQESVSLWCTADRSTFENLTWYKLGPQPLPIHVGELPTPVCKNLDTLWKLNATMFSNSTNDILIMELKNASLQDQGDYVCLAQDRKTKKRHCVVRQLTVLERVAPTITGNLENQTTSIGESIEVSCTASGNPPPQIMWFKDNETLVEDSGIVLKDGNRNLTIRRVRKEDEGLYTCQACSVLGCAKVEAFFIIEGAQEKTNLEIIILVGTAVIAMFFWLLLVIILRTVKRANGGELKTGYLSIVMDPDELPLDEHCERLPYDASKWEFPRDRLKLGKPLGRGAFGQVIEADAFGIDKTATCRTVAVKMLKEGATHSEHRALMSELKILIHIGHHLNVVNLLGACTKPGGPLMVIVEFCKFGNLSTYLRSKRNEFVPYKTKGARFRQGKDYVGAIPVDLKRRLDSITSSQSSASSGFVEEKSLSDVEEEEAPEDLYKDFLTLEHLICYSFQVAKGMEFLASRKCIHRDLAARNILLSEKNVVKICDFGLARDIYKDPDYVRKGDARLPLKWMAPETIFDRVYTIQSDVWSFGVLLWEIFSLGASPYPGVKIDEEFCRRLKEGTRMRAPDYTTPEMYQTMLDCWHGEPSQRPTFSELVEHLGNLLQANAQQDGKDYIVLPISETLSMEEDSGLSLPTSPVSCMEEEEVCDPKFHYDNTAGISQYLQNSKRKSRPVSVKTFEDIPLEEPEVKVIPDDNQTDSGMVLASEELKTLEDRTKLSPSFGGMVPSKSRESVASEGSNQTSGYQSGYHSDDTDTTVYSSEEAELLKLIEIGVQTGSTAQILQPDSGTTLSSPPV
- Sequence (P40337 whole entry partner): as the sequence (P40337 whole entry) above
Just the number in %, nothing appended.

Request: Fill blank: measured Emax of the compound Cc1ccc(NC(=O)Cn2cc(-c3ccc4c(NC(=O)c5ccc(N6CCN(C(=O)NCCCCC(=O)N[C@H](C(=O)N7C[C@H](O)C[C@H]7C(=O)NCc7ccc(-c8scnc8C)cc7)C(C)(C)C)CC6)cc5)n[nH]c4c3)cn2)cc1C(F)(F)F is ____.
Result: 17.3

###

- assay comment: Cytotoxicity against HEK293T cells assessed as inhibition of cell growth incubated for 72 hrs by MTT assay
- Format: toxicity, cell-based, HEK-293T
- protocol conditions: human
Reported IC50 at 72 h values for the following molecules.
Just the number in µM, nothing appended.

INSERT INTO results (compound_string, result) VALUES
  ('Cc1ccc(NC(=O)Cn2cc(-c3ccc4c(NC(=O)c5ccc(NC(=O)CCCCC(=O)N6CCN(CCCCCCC(=O)N[C@H](C(=O)N7C[C@H](O)C[C@H]7C(=O)NCc7ccc(-c8scnc8C)cc7)C(C)(C)C)CC6)cc5)n[nH]c4c3)cn2)cc1C(F)(F)F', 24.1);

Let us examine a further case.
Request: Fill blank: measured IC50 at 72 h of the molecule Cc1ccc(NC(=O)Cn2cc(-c3ccc4c(NC(=O)c5ccc(NC(=O)CCCCCCCCCCC(=O)N[C@H](C(=O)N6C[C@H](O)C[C@H]6C(=O)NCc6ccc(-c7scnc7C)cc6)C(C)(C)C)cc5)n[nH]c4c3)cn2)cc1C(F)(F)F is ____.
Result: 9.45

###

Reported IC50 at 72 h values for the following compounds.
- assay comment: Cytotoxicity against human GES1 cells assessed as inhibition of cell growth incubated for 72 hrs by MTT assay
- Type: toxicity, cell-based
Just the number in µM, nothing appended.

Examples with answers:
INSERT INTO measurements (compound_string, value_unit, result) VALUES
  ('Cc1ccc(NC(=O)Cn2cc(-c3ccc4c(NC(=O)c5ccc(NC(=O)CCC(=O)N[C@H](C(=O)N6C[C@H](O)C[C@H]6C(=O)NCc6ccc(-c7scnc7C)cc6)C(C)(C)C)cc5)n[nH]c4c3)cn2)cc1C(F)(F)F', 'µM', 47.4),
  ('Cc1ccc(NC(=O)Cn2cc(-c3ccc4c(NC(=O)c5ccc(N6CCN(CCCCC(=O)N[C@H](C(=O)N7C[C@H](O)C[C@H]7C(=O)NCc7ccc(-c8scnc8C)cc7)C(C)(C)C)CC6)cc5)n[nH]c4c3)cn2)cc1C(F)(F)F', 'µM', 60.3);

Let us examine a further case.
Request: Fill blank: measured IC50 at 72 h of the compound Cc1ccc(NC(=O)Cn2cc(-c3ccc4c(NC(=O)c5ccc(NC(=O)CCCCC(=O)N6CCN(CCCC(=O)N[C@H](C(=O)N7C[C@H](O)C[C@H]7C(=O)NCc7ccc(-c8scnc8C)cc7)C(C)(C)C)CC6)cc5)n[nH]c4c3)cn2)cc1C(F)(F)F is ____.
Result: 25.4
